These data points were gathered from patent US20030171375A1.

- assayTarget: Flk-1 (Mus musculus, UniProt P35918)
- Construct: GST-fusion proteins of the kinase domains of several tyrosine kinase receptors; GST
- Sequence (P35918 832-1160 limits assumed): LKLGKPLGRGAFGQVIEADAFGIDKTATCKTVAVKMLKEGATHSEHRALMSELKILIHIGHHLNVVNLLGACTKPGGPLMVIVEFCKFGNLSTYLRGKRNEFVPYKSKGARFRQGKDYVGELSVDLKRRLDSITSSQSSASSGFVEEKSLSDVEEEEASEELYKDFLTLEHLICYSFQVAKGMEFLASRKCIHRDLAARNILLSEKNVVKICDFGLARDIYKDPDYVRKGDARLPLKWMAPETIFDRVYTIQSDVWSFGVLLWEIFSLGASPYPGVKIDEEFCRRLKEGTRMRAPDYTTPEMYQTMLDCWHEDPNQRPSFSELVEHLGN
- runDescription: standard tyrosine kinase assay: phosphorylation of poly(GluTyr) by GST-fusion kinase domain
- statedConditions: kinase inhibitory profile, Table I
measurementLabel: IC50

query: Given the compound Cc1ccc(NC(=O)c2ccccc2)cc1Nc1nccc(-c2cccnc2)n1 [CGP 53 716] , what is its reported IC50?
result: > 1 µM

----------
- assayTarget: C-Met (Homo sapiens, UniProt P08581)
- Construct: GST-fusion proteins of the kinase domains of several tyrosine kinase receptors; GST
- Sequence (P08581 1078-1345 limits assumed): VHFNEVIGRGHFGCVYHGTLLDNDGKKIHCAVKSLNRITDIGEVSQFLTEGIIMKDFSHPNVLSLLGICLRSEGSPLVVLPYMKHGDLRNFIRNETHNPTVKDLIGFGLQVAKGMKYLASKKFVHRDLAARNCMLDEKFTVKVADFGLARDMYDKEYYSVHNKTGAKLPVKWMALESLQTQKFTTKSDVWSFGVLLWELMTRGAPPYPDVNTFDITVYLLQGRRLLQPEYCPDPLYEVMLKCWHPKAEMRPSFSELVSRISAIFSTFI
- runDescription: standard tyrosine kinase assay: phosphorylation of poly(GluTyr) by GST-fusion kinase domain
- statedConditions: kinase inhibitory profile
measurementLabel: IC50

query: Given the compound Cc1ccc(NC(=O)c2ccccc2)cc1Nc1nccc(-c2cccnc2)n1 [CGP 53 716] , what is its reported IC50?
result: > 10 µM

----------
- assayTarget: Tie-2 (Homo sapiens)
- Construct: GST-fusion proteins of the kinase domains of several tyrosine kinase receptors; GST
- Sequence (Q02763 824-1096 limits assumed, species assumed): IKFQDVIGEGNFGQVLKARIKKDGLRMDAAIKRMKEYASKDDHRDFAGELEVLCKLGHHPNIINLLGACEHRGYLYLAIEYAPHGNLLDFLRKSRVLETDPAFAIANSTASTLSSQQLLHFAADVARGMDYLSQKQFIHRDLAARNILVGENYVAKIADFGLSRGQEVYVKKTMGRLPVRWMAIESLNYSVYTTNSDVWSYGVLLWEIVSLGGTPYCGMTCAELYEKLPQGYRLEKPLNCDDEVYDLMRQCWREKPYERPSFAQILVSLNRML
- runDescription: standard tyrosine kinase assay: phosphorylation of poly(GluTyr) by GST-fusion kinase domain
- statedConditions: kinase inhibitory profile
measurementLabel: IC50

query: Given the molecule Cc1ccc(NC(=O)c2ccccc2)cc1Nc1nccc(-c2cccnc2)n1 , what is its reported IC50?
result: > 1000 nM
